B1: Azoarcus group I ribozyme (parent)
chain: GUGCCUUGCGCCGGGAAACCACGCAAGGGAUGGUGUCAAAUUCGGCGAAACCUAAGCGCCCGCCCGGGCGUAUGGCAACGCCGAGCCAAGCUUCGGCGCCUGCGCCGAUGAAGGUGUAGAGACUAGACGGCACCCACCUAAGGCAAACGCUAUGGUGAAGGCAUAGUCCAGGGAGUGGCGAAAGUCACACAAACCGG

- Variants of: B1
- Assay details: reverse-splicing fitness (ratio to wild type); higher = more active; in vitro selection; Mg2+ level not given
Entry class follows reverse-splicing fitness: category 1: < 0.007; category 2: ≥ 0.007 and < 0.01; category 3: ≥ 0.01

Kindly state the category for this variant: C82U A111G A120C A145U C150A C169G U176A category 3
